- assayed system: T1, Human BSSL (bile salt-stimulated lipase), native (human, UniProt P19835 21-753)
- T1 construct: Native full-length protein purified from human milk (Astra Hässle AB); also called hBSSL; non-biotinylated human BSSL
- T1 sequence: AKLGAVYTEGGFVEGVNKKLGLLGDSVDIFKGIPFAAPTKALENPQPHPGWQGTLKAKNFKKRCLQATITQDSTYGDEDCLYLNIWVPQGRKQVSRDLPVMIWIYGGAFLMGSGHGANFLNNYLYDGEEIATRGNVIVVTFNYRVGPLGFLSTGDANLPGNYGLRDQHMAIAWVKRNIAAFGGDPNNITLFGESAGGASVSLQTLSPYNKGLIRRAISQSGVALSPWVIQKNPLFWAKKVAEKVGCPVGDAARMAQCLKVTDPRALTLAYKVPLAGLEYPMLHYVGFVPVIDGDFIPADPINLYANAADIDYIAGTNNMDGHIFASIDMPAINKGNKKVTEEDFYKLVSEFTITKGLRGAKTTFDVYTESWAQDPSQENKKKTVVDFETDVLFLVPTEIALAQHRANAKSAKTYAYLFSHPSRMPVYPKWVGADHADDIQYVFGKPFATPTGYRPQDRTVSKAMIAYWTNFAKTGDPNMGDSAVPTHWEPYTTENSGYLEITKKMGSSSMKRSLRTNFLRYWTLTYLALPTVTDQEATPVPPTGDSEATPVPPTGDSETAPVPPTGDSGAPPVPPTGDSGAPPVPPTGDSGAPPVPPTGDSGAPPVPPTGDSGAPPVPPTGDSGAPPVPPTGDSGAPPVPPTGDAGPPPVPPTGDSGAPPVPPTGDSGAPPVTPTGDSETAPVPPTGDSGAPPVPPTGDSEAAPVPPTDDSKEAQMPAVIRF
- assay protocol: SPR single cycle kinetics, hIgG4 S228P captured by anti-Fab
Collected Kd values appear next to each entry.
Just the number in nM, nothing appended.

| binder | unit of measurement | quantitative readout |
| --- | --- | --- |
| S-SL048-12 hIgG4 S228P (antibody, V domains shown, Tested as human IgG4 S228P) VH: QVQLVQSGAEVKKPGASVKVSCKASGYTFTSYNMHWVRQAPGQGLEWMGVINPSDGATSYTQKFQGRVTMTRDTSTSTVYMELSSLRSEDTAVYYCARDYYGSSPLGYWGQGTLVTVSS VL: DIQMTQSPSSLSASVGDRVTITCSASSSISYMHWYQQKPGKAPKLLIYAASRLASGVPSRFSGSGSGTDFTLTISSLQPEDFATYYCHQRSSTSTFGQGTKLEIK | nM | 6.4 |
| S-SL048-14 hIgG4 S228P (antibody, V domains shown, Tested as human IgG4 S228P) VH: QVQLVQSGAEVKKPGASVKVSCKASGYTFTSYNMHWVRQAPGQGLEWMGVINPGDGATSYAQKFKGRVTMTRDTSTSTVYMELSSLRSEDTAVYYCARDYYGSSPLGYWGQGTLVTVSS VL: DIQMTQSPSSLSASVGDRVTITCRASPSISYLNWYQQKPGKAPKLLIYATSRLPSGVPSRFSGSGSGTDFTLTISSLQPEDFATYYCQQRSSSPTFGQGTKLEIK | nM | 0.9 |
| S-SL048-106 hIgG4 S228P (antibody, V domains shown, also called mAb106) VH: QVQLVQSGAEVKKPGASVKVSCKASGYTFTSYNMHWVRQAPGQGLEWIGVIYPGDGSTSYNQKFQGRVTMTRDTSTSTVYMELSSLRSEDTAVYYCARDYYGSSPLGYWGQGTLVTVSS VL: DIQMTQSPSSLSASVGDRVTITCSASSSISYMNWYQQKPGKAPKLLIYATSKLPSGVPSRFSGSGSGTDFTLTISSLQPEDFATYYCHQRSSTPTFGQGTKLEIKR | nM | 1.2 |
| S-SL048-103 hIgG4 S228P (antibody, V domains shown, Tested as human IgG4 S228P) VH: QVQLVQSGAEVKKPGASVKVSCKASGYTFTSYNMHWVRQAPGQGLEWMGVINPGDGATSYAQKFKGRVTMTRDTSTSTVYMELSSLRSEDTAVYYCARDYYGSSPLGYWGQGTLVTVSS VL: DIQMTQSPSSLSASVGDRVTITCRASSSISYMHWYQQKPGKAPKLLIYATSSLASGVPSRFSGSGSGTDFTLTISSLQPEDFATYYCHQRSSSPTFGQGTKLEIK | nM | 1.7 |

Continue with the binder presented below.
So, S-SL048-116 hIgG4 S228P (antibody, V domains shown, also called mAb116) VH: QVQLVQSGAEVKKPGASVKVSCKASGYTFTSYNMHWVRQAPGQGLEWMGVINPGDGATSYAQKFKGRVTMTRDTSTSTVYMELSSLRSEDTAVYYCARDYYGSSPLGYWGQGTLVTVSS VL: DIQMTQSPSSLSASVGDRVTITCRASPSISYMNWYQQKPGKAPKLLIYATSSLASGVPSRFSGSGSGTDFTLTISSLQPEDFATYYCHQRSSSPTFGQGTKLEIKR ? Its Kd was 0.6
